- system tested: Xanthine dehydrogenase/oxidase (Bos taurus)
- Sequence (P80457 whole entry): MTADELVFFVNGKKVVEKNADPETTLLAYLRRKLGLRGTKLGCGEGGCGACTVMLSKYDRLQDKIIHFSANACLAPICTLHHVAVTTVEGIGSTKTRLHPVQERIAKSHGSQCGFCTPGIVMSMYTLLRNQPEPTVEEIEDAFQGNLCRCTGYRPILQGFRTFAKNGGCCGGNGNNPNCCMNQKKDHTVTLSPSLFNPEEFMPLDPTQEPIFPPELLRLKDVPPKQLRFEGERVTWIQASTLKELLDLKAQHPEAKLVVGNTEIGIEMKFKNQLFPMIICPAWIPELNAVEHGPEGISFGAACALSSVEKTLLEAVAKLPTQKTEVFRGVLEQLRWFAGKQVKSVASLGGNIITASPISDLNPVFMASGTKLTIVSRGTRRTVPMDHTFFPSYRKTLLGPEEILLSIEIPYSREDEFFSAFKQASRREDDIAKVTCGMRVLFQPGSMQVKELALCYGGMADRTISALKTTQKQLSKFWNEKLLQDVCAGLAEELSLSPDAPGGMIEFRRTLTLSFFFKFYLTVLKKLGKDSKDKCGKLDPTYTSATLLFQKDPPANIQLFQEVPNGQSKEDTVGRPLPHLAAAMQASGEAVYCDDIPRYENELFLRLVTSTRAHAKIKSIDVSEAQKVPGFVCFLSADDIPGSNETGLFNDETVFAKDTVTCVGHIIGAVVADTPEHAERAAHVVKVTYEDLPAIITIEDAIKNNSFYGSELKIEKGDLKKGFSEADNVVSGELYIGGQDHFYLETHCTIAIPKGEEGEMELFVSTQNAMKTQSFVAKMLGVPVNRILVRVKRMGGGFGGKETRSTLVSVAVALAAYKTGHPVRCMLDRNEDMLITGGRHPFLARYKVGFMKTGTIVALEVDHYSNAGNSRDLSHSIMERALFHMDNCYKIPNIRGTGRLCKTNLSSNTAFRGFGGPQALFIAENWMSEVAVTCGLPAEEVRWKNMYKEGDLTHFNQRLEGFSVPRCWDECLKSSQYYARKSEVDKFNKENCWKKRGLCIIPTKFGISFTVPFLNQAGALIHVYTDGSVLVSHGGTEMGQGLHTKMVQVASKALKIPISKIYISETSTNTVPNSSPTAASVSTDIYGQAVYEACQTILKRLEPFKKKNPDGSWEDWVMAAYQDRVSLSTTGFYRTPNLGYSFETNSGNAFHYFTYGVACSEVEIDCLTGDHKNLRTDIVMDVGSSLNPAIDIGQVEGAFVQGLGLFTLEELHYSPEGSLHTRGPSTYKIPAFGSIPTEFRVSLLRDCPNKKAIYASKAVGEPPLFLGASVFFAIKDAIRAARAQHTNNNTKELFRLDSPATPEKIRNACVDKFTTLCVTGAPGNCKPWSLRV
pIC50: −log10 of the molar value.
property measured: pIC50

Examples with their reported pIC50 follow.
compound: O=c1cc(-c2ccc(O)c(-c3c(O)cc(O)c4c(=O)cc(-c5ccc(O)cc5)oc34)c2)oc2cc(O)cc(O)c12
pIC50: 4.45
--
compound: O=c1cc(-c2ccc(O)c(O)c2)oc2cc(O[C@@H]3O[C@H](CO)[C@@H](O)[C@H](O)[C@H]3O)cc(O)c12 (single isomer, unassigned)
pIC50: 4.12

[I] O=c1cc(-c2ccc(O)cc2)oc2cc(O)c(O)c(O)c12
[II] O=C1c2c(O)cc(O)cc2O[C@H](c2ccc(O)cc2)[C@H]1O [DIHYDROKAEMPFEROL]
Incoming: Given the two records I and II , choose the one whose pIC50 value is lower. Label of pick, please.
Outgoing: II
(II: 4.03, I: 4.90)

Data provenance is ChEMBL document CHEMBL1150752.
